Target: SARS2 coronavirus 3CL protease (Severe acute respiratory syndrome coronavirus 2 (2019-nCoV) (SARS-CoV-2))
Assay: SARS2 Coronavirus 3CL Protease Assay (FRET)
Format: biochemical
Settings: SARS2 3CLPro FRET assay; 5 nM enzyme, 30 min pre-incubation with compound, 15 uM peptide substrate, 4 h room temperature
Quantity kind: log10 of IC50 (log10 of the value in nM)
The figures below represent log10 of IC50, where IC50 is stated in nM.

Some compounds with recorded log10 of IC50:
- Compound: "CC(F)(F)CC[C@H](NC(=O)[C@@H]1CC2(CCCCC2)CN1C(=O)[C@@H](NC(=O)OC1CCCC1)C(C)(C)C)C(=O)C(=O)NC1CC1"
  Recorded value: 1.91
- Compound: "CNC(=O)C(=O)[C@H](CCC(C)(F)F)NC(=O)[C@@H]1CC2(CCN1C(=O)[C@@H](NC(=O)OC)C(C)(C)C)CC2"
  Recorded value: 0.81

I would be grateful if you could provide log10 of IC50 for each of the following entries.
1. COC(=O)N[C@H](C(=O)N1C[C@@H]2CCCC[C@@H]2C[C@H]1C(=O)N[C@@H](CCC(C)(F)F)C(=O)C(=O)NC1CC1)C(C)(C)C
2. CC(C)[C@H](NC(=O)OC(C)(C)C)C(=O)N1CC2(CCCCC2)C[C@H]1C(=O)N[C@@H](CCC(C)(F)F)C(=O)C(=O)NC1CC1
3. COC(=O)N[C@H](C(=O)N1C[C@@H]2CCC[C@@H]2[C@H]1C(=O)N[C@@H](CCC(C)(F)F)C(=O)C(=O)NCC(F)(F)F)C(C)(C)C
4. COC(=O)N[C@H](C(=O)N1CCC(C)(C)C1C(=O)N[C@@H](CCC(C)(F)F)C(=O)C(=O)NC1CC1)C(C)(C)C (single isomer, unassigned)

Completion:
1: 1.34; 2: 2.05; 3: 1.89; 4: 1.78

I would be grateful if you could provide log10 of IC50 for each of the following entries.
1. CC(F)(F)CC[C@H](NC(=O)[C@@H]1[C@@H]2[C@H](CN1C(=O)[C@@H](NC(=O)OCc1ccccc1)C1CCCCC1)C21CCCCC1)C(=O)C(=O)NC1CC1
2. CNC(=O)C(=O)[C@H](CCC(C)(F)F)NC(=O)[C@@H]1[C@H]2CCC[C@H]2CN1C(=O)C(NC(=O)OC)C1CC(F)(F)C1 (single isomer, unassigned)
3. COC(=O)N[C@H](C(=O)N1CCCCC1C(=O)N[C@@H](CCC(C)(F)F)C(=O)C(=O)NC1CC1)C(C)(C)C (single isomer, unassigned)
4. COC(=O)N[C@H](C(=O)N1CCC(C)(C)CC1C(=O)N[C@@H](CCC(C)(F)F)C(=O)C(=O)NC1CC1)C(C)(C)C (single isomer, unassigned)

Completion:
1.00
1.20
2.38
0.96

Prompt: Consider the compound shown here: COC(=O)N[C@H](C(=O)N1CC2(CCC(F)(F)CC2)CC1C(=O)N[C@@H](CCC(C)(F)F)C(=O)C(=O)NC1CC1)C(C)(C)C (single isomer, unassigned) What is its recorded log10 of IC50?
Completion: 2.46
